Source: the NIST ThermoML archive (doi:10.1021/je200195q)

# assay-info: activity coefficient (dimensionless); of the first substance listed, at infinite dilution; xn = mol fraction of the nth substance listed
# condition-set: 322.45 K; 101 kPa; Liquid; Chromatography; x1 = 0
Quick list: activity coefficient per entry.
The answer should be written as a number, with no unit following it.

Would you please look over these solved cases?
CCOCC [diethyl ether] + CCn1cc[n+](C)c1.CS(=O)(=O)[O-]; 20.4
CC(C)CC(C)(C)C [2,2,4-trimethylpentane] + CCn1cc[n+](C)c1.CS(=O)(=O)[O-]; 387
C1COCCO1 [1,4-dioxane] + CCn1cc[n+](C)c1.CS(=O)(=O)[O-]; 2.67
CCCCCCCCCCCCCC [tetradecane] + CCn1cc[n+](C)c1.CS(=O)(=O)[O-]; 4000

activity coefficient for c1ccsc1 [thiophene] + CCn1cc[n+](C)c1.CS(=O)(=O)[O-] is 1.91

activity coefficient for CCN(CC)CC [triethylamine] + CCn1cc[n+](C)c1.CS(=O)(=O)[O-] is 14.3

activity coefficient for CCCCCCC [heptane] + CCn1cc[n+](C)c1.CS(=O)(=O)[O-] is 2230

activity coefficient for CCCC=O [butanal] + CCn1cc[n+](C)c1.CS(=O)(=O)[O-] is 4.95

activity coefficient for CCC(C)CC [3-methylpentane] + CCn1cc[n+](C)c1.CS(=O)(=O)[O-] is 135

activity coefficient for CCC(=O)CC [pentan-3-one] + CCn1cc[n+](C)c1.CS(=O)(=O)[O-] is 7.45

activity coefficient for CCCCCC [hexane] + CCn1cc[n+](C)c1.CS(=O)(=O)[O-] is 190

activity coefficient for CC#N [acetonitrile] + CCn1cc[n+](C)c1.CS(=O)(=O)[O-] is 0.818

activity coefficient for CC(C)OC(C)C [diisopropyl ether] + CCn1cc[n+](C)c1.CS(=O)(=O)[O-] is 74.2

* * *

# assay-info: activity coefficient (dimensionless); of the first substance listed, at infinite dilution; xn = mol fraction of the nth substance listed
# condition-set: 343.15 K; 101 kPa; Liquid; Chromatography; x1 = 0
metric-name: activity coefficient
The answer should be written as a number, with no unit following it.

CCCCCC [hexane] + CCCCCCCCCCn1cc[n+](CCCCCCCCCC)c1C.O=S(=O)([N-]S(=O)(=O)C(F)(F)F)C(F)(F)F; 1.76
CCC(C)=O [butanone] + CCCCCCCCCCn1cc[n+](CCCCCCCCCC)c1C.O=S(=O)([N-]S(=O)(=O)C(F)(F)F)C(F)(F)F; 0.264
CCN(CC)CC [triethylamine] + CCCCCCCCCCn1cc[n+](CCCCCCCCCC)c1C.O=S(=O)([N-]S(=O)(=O)C(F)(F)F)C(F)(F)F; 2.86

activity coefficient for C1CCCCCC1 [cycloheptane] + CCCCCCCCCCn1cc[n+](CCCCCCCCCC)c1C.O=S(=O)([N-]S(=O)(=O)C(F)(F)F)C(F)(F)F is 6.09

* * *

# assay-info: activity coefficient (dimensionless); of the first substance listed, at infinite dilution; xn = mol fraction of the nth substance listed
# condition-set: 323.1 K; 101 kPa; Liquid; Chromatography; x1 = 0
Doc: threshold 1 (exclusive). Items with activity coefficient beneath it return 1.0; others return 0.0.

Field: example entries. Status: answers known.
c1ccncc1 [pyridine] + CCCCCCCCCCn1cc[n+](CCCCCCCCCC)c1C.O=S(=O)([N-]S(=O)(=O)C(F)(F)F)C(F)(F)F; 1.0
OCC(F)(F)F [2,2,2-trifluoroethanol] + CCCCCCCCCCn1cc[n+](CCCCCCCCCC)c1C.O=S(=O)([N-]S(=O)(=O)C(F)(F)F)C(F)(F)F; 1.0
CC(C)O [propan-2-ol] + CCCCCCCCCCn1cc[n+](CCCCCCCCCC)c1C.O=S(=O)([N-]S(=O)(=O)C(F)(F)F)C(F)(F)F; 0.0
CCCCCCCCCC [decane] + CCCCCCCCCCn1cc[n+](CCCCCCCCCC)c1C.O=S(=O)([N-]S(=O)(=O)C(F)(F)F)C(F)(F)F; 0.0
Cc1ccc(C)cc1 [1,4-dimethylbenzene] + CCCCCCCCCCn1cc[n+](CCCCCCCCCC)c1C.O=S(=O)([N-]S(=O)(=O)C(F)(F)F)C(F)(F)F; 1.0

Ask: Please state whether activity coefficient is below 1 for C#CCCCCC [1-heptyne] + CCCCCCCCCCn1cc[n+](CCCCCCCCCC)c1C.O=S(=O)([N-]S(=O)(=O)C(F)(F)F)C(F)(F)F
Result: 0.0

Ask: Please state whether activity coefficient is below 1 for CCCO [propan-1-ol] + CCCCCCCCCCn1cc[n+](CCCCCCCCCC)c1C.O=S(=O)([N-]S(=O)(=O)C(F)(F)F)C(F)(F)F
Result: 0.0
